B1: HDV Ribozyme (parent)
chain: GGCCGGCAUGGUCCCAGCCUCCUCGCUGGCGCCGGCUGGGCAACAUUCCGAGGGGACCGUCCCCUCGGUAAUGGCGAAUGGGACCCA

- Variants of: B1
- protocol text: self-cleavage, relative activity (ratio to wild type); higher = more cleavage; co-transcriptional
Label rule, in plain words: self-cleavage of 0.3 and up is yes, under 0.3 is no.

G17C A45G: no
C24A A83C: no
U27A G68C: yes
G28C A51G: no
A51C C57G: yes

Enquiry: Does U9C G52A have a reported self-cleavage of at least 0.3?
Return: yes

Enquiry: Say whether A83C C86A shows self-cleavage of 0.3 or more.
Return: yes

Enquiry: Does the reported self-cleavage for U46A C49A fall at or above the 0.3 mark?
Return: yes

Enquiry: Form field: self-cleavage at least 0.3? Entry: U47C C57A
Return: yes

Enquiry: Threshold query (self-cleavage >= 0.3) on G28A G74A
Return: no

Enquiry: Tell me whether self-cleavage is at least 0.3 here: G28A C36A
Return: no

Enquiry: Evaluate G67C G73U : self-cleavage at minimum 0.3?
Return: yes

Enquiry: Can G40C C66G be said to have self-cleavage at or above 0.3?
Return: no

Enquiry: Could you verify whether the entry C57A U69G shows self-cleavage of no less than 0.3?
Return: yes

Enquiry: Kindly determine if self-cleavage recorded for G40A A87U is above or exactly 0.3.
Return: yes

Enquiry: self-cleavage >= 0.3 for C48U C49G ?
Return: yes

Enquiry: Tell me whether self-cleavage is at least 0.3 here: G6A G81A
Return: no

Enquiry: Check the entry G11U A87G : does self-cleavage equal or exceed 0.3?
Return: yes

Enquiry: Quick check: does C3U G50C have self-cleavage greater than or equal to 0.3?
Return: yes

Enquiry: In plain terms: is recorded self-cleavage at least 0.3 for C7A C61G ?
Return: yes

Enquiry: Evaluate C13A C61G : self-cleavage at minimum 0.3?
Return: no

Enquiry: I'd appreciate it if you could say whether U9G A77G has self-cleavage at least equal to 0.3.
Return: yes

Enquiry: Record C48A U69G ; criterion: self-cleavage no lower than 0.3. Met?
Return: yes

Each recorded value in this set is attributed to the RNAGym collection of RNA variant scans (doi:10.7554/elife.80360).
